target: UniProt P29371; assay: NK3 binding affinity, scintillation proximity assay (SPA); conditions: 125I [MePhe7]-NKB; plasma membrane from CHO cell lines expressing NK3 receptors
Sequence (P29371 whole entry): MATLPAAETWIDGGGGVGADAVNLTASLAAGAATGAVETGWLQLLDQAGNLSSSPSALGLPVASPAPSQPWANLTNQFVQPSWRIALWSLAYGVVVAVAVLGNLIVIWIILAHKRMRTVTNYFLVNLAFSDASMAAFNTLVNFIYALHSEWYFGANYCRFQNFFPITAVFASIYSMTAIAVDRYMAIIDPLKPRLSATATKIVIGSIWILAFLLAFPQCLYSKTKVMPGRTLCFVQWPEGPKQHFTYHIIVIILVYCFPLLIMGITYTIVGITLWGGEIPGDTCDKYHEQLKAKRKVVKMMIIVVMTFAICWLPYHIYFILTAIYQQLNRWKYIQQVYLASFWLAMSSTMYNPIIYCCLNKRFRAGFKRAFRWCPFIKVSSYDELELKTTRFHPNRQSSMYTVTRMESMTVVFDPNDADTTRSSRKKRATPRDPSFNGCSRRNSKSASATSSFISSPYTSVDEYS
quantity: pKi
As a rule, pKi stands for the negative log10 of the concentration, concentration in M.

Q) Recall the recorded pKi for CC[C@H](NC(=O)c1c(COC[C@@H]2CCCN2C)c(-c2ccccc2)nc2ccccc12)c1ccccc1 [Example 1] with UniProt P29371 and state it.
A) 8.20
